Data credit: PubChem BioAssay (EPA / NIEHS)

- TEST NAME: ATG_CRE_CIS: Attagene CIS-FACTORIAL HepG2 Assay for human cAMP Responsive Element (CRE) binding protein 3 (AID 2282926)
- TEST CONDITIONS: HepG2 CRE cis-reporter, Attagene multiplexed mRNA; actives raise or lower the signal
Calls of active or inactive are those of the source. Rule for the calls: active = hit-call score of the fitted dose curve at least 0.9, where 1 is the maximum; inactive = score below 0.9.
Response enum: active, inactive

[
  {
    "INPUT SMILES": "CC1(C)NC(=O)NC1=O",
    "CAT": "inactive"
  },
  {
    "INPUT SMILES": "CCCCCCCC=O",
    "CAT": "inactive"
  },
  {
    "INPUT SMILES": "C=CCOC(=O)c1ccccc1C(=O)OCC=C",
    "CAT": "inactive"
  },
  {
    "INPUT SMILES": "Cc1nc(C)nc(N2C[C@@H](C)N(c3ccnc([C@@H](C)O)n3)[C@@H](C)C2)n1",
    "CAT": "inactive"
  },
  {
    "INPUT SMILES": "COc1cc(S(=O)(=O)O)c(C)cc1N=Nc1c(O)ccc2cc(S(=O)(=O)O)ccc12",
    "CAT": "inactive"
  }
]

Ask: Dear all, I need the recorded test outcome for Oc1ccc2c(c1)OC[C@@H](N1CCC(O)(c3ccc(F)cc3)CC1)[C@H]2O , thank you.
Result: inactive

Ask: Dear all, I need the recorded test outcome for CCCCCCCCCCCCCO , thank you.
Result: active

Ask: Dear all, I need the recorded test outcome for CC(C)c1ccc(C(=O)N=C(N)N)cc1S(C)(=O)=O , thank you.
Result: inactive

Ask: Dear all, I need the recorded test outcome for Cc1ccccc1Cl , thank you.
Result: inactive

Ask: Dear all, I need the recorded test outcome for Nc1ccc2c(c1)C(=O)c1ccccc1C2=O , thank you.
Result: inactive

Ask: Dear all, I need the recorded test outcome for COc1ccc(S(=O)(=O)N2C(=O)[C@@](c3ccccc3OC)(N3C[C@H](O)C[C@H]3C(=O)N(C)C)c3cc(Cl)ccc32)c(OC)c1 , thank you.
Result: active

----------
- TEST NAME: APR_HepG2_StressKinase_24hr: Apredica 24-hour HepG2 Assay for Stress Kinase (AID 2282922)
- TEST CONDITIONS: HepG2 stress kinase (phospho-c-Jun) imaging, actives raise or lower the signal
Active and inactive are the calls of the source. The calls were made as follows: active = hit-call score of the fitted dose curve at least 0.9, where 1 is the maximum; inactive = score below 0.9.
Response enum: active, inactive

# count of solved cases: 6
[
  {
    "COMPOUND": "CCCCCCC(=O)OCC",
    "CAT": "inactive"
  },
  {
    "COMPOUND": "C[Si]1(C)O[Si](C)(C)O[Si](C)(C)O[Si](C)(C)O1",
    "CAT": "inactive"
  },
  {
    "COMPOUND": "CC(=O)Oc1ccccc1C(=O)O",
    "CAT": "inactive"
  },
  {
    "COMPOUND": "CC(CO)OC(C)CO (stereo unspecified) (tested in a mixture with another compound)",
    "CAT": "inactive"
  },
  {
    "COMPOUND": "CCCCC(CC)COC(=O)CC(C(=O)OCC(CC)CCCC)S(=O)(=O)O (stereo unspecified)",
    "CAT": "inactive"
  },
  {
    "COMPOUND": "COc1cccc2c1C(=O)c1c(O)c3c(c(O)c1C2=O)C[C@@](O)(C(=O)CO)C[C@@H]3O[C@H]1C[C@H](N)[C@H](O)[C@H](C)O1",
    "CAT": "active"
  }
]

Next:
Ask: Dear all, I need the recorded test outcome for COc1cc(C=O)ccc1O , thank you.
Result: inactive
